Readings of INHIBITION for the listed compounds
System: Plasmodium berghei
protocol_details: Screen against P. berghei liver stage (PbLuc), transformed with Luciferase, at 10uM
Format: functional, HepG2
assay_context: tested at 10 uM
Hit rate of the full screen: of about 69,000 compounds, about 8,600 (12%) showed an effect of 50% or more. Shown is part of a subset that was picked to be rich in strong results.
assay_endpoint: INHIBITION (%)

INSERT INTO assay_data (compound, assay_endpoint, observed_value) VALUES
  ('COc1ccc(CNCCc2cccc(C(N)=O)c2)cc1C', 'INHIBITION', 11.8),
  ('COCCO[C@H]1CCN(c2cc(OC)ncn2)[C@H]1Cc1ccncc1', 'INHIBITION', -39.2),
  ('c1ccc(CN2CCC(NCCSc3ncn[nH]3)C2)cc1 (stereo unspecified)', 'INHIBITION', 42.3),
  ('O=C(COc1cccc(F)c1)N1C[C@@H](CN2CCCC2)C[C@H](CO)C1', 'INHIBITION', -1.315),
  ('CCCc1cc(CNC2CCN(c3nc4ccccc4s3)CC2)on1', 'INHIBITION', 67.8),
  ('O=C(NCc1ccco1)N1CCCCC1c1nc(-c2ccncc2)no1 (stereo unspecified)', 'INHIBITION', -31),
  ('N#Cc1c(F)cccc1N1CCC(C(=O)Nc2nccs2)CC1', 'INHIBITION', 17.5),
  ('COCCO[C@H]1CCN(c2ccc(C)nn2)[C@H]1Cc1cccnc1', 'INHIBITION', 5.68),
  ('CC(C)n1nnc(CC(=O)NCC2(c3cccc(F)c3)CCCC2)n1', 'INHIBITION', 26.7),
  ('CCOCCn1nc(C)cc1C(=O)N1CCC2(CC1)[C@H](O)C[C@@H]2OCC', 'INHIBITION', 9.63),
  ('CCN1CC[C@@]2(C(=O)N3CCCC3)CCN(S(C)(=O)=O)CC[C@@H]12', 'INHIBITION', -45.5),
  ('Cc1ccccc1CCC1CCCN(C(=O)Cc2cc(=O)[nH]c(N)n2)C1 (stereo unspecified)', 'INHIBITION', -33),
  ('c1ccc(O[C@@H]2CC[C@H]3[C@H]2OCCN3CC2CCOCC2)nc1', 'INHIBITION', 56.1),
  ('CCc1nc(N)sc1C(=O)N1CCCC(CCc2ccccc2C)C1 (stereo unspecified)', 'INHIBITION', 55.3),
  ('O=C(COc1cccc(F)c1)N1C[C@@H](O)[C@H](N2CCOCC2)C1', 'INHIBITION', 32.3),
  ('CCO[C@H]1C[C@@H](O)C12CCN(S(=O)(=O)c1ccccc1OC)CC2', 'INHIBITION', 46.4);

---

Test system: Plasmodium berghei
protocol_details: Screen against P. berghei liver stage (PbLuc), transformed with Luciferase, at 10uM
Assay type: functional, HepG2
assay_context: tested at 10 uM
Among all 69,000 compounds or so, about 8,600 (12%) showed an effect of 50% or more. This is one part of a sample in which strong results are shown more often than they occur.
Reported INHIBITION maps to class as: Low: < 20%; Medium: ≥ 20% and < 50%; High: ≥ 50%

INSERT INTO results (compound, discrete_label) VALUES
  ('Cc1noc(C)c1CCC(=O)NCC1(O)CCCN(c2ccccn2)C1 (centres undefined)', 'Medium'),
  ('O=C(NC1CCCC1)C1(Cc2cc(C3CCOC3)no2)CCNCC1 (centres undefined)', 'Medium'),
  ('CC(NC(=O)c1cccc[n+]1[O-])c1ccc2c(c1)CCC(=O)N2 (centres undefined)', 'High'),
  ('CN1CCN(C(=O)c2cc(NC(=O)c3ccccc3)n(C)n2)CC1', 'Medium'),
  ('COc1ccc(OC)c(CN2CCC(c3cc(O)nc(C)n3)C2)c1 (centres undefined)', 'Medium'),
  ('Cc1noc(-c2ccnc(Oc3ccc(CN4CCCC4)cc3F)c2)n1', 'High'),
  ('Cc1csc(CNC(=O)NC(C)c2ccc3c(c2)CCC(=O)N3)n1 (centres undefined)', 'Low'),
  ('Cc1ccsc1C(=O)NC(C)c1ccc2c(c1)CCC(=O)N2 (centres undefined)', 'Low'),
  ('O=C(NCCOc1ncc(Cl)cc1Cl)c1ccncc1', 'Medium'),
  ('O=C(CCn1cccn1)NCCOc1ncc(Cl)cc1Cl', 'High'),
  ('CNC(=O)Cc1n[nH]c(-c2cncc(Br)c2)n1', 'Low'),
  ('Cc1nc2c(c(C)c1CC(=O)NCc1ccco1)c(=O)[nH]n2C', 'Low'),
  ('O=C(NCCOc1ncc(Cl)cc1Cl)c1cccnc1', 'Low'),
  ('CC(=O)N1CCc2nc(N(C)C)nc(NCCc3ccccc3)c2CC1', 'High'),
  ('CCOCc1nn(C)c2c1CN(Cc1cccs1)CC2', 'Medium'),
  ('CN1C[C@@H]2CN(C(=O)NCc3ccccc3)CCC[C@]2(C(=O)O)C1', 'Low'),
  ('NC(=O)CNC(=O)c1ccc(CNCc2ccc(F)cc2F)cc1', 'High'),
  ('CC1CCC(NC(=O)CNC2(c3ccc(F)cc3)CCOCC2)CC1 (centres undefined)', 'Low'),
  ('CN1CCC(Cc2cc(Nc3ccccn3)ncn2)CC1', 'Low'),
  ('CC(=O)N1CCc2c(nc(N(C)C)nc2NC(C)Cc2cccs2)C1 (centres undefined)', 'High'),
  ('COc1ccc(CN(Cc2c[nH]cn2)CC2CCCO2)c(OC)c1 (centres undefined)', 'Medium');

---

Test system: Plasmodium berghei
protocol_details: Screen against P. berghei liver stage (PbLuc), transformed with Luciferase, at 10uM
Assay type: functional, HepG2
assay_context: tested at 10 uM
Screen size: about 69,000 compounds; about 8,600 (12%) showed an effect of 50% or more. The sample as a whole holds a higher share of strong results than the screen did.
assay_endpoint: INHIBITION (%)

INSERT INTO results (chemical_string, assay_endpoint, observed_value) VALUES
  ('COC[C@@]12CC[C@@H](N3CCOCC3)C[C@H]1CCN(c1ncccn1)C2', 'INHIBITION', 53.5),
  ('CO[C@H]1CN(Cc2ccccc2F)[C@@H]2CCCO[C@H]12', 'INHIBITION', 68.8),
  ('O=C(CCc1ccsc1)N1CCC(Nc2cccnn2)CC1', 'INHIBITION', 25.1),
  ('Cc1cnc(N(C)CCCc2cnn(C)c2)nc1N(C)C', 'INHIBITION', -0.996),
  ('CC(=O)N1CCCN(Cc2ccon2)c2ccccc21', 'INHIBITION', 32.3),
  ('Cc1nnc2n1CCN(Cc1ncc(-c3ccccc3)o1)C2', 'INHIBITION', -25.4),
  ('Cc1cc2cc(NC(=O)Cn3ncc(N4CCCC4)cc3=O)ccc2o1', 'INHIBITION', 30.3);

---

System: Plasmodium berghei
protocol_details: Screen against P. berghei liver stage (PbLuc), transformed with Luciferase, at 10uM
Type: functional, HepG2
assay_context: tested at 10 uM
Among all 69,000 compounds or so, about 8,600 (12%) showed an effect of 50% or more. The sample as a whole holds a higher share of strong results than the screen did.
assay_endpoint: INHIBITION (%)

INSERT INTO results (compound, experimental_system, assay_endpoint, units_of_measure, observed_value) VALUES
  ('O=C(Nc1ccc2c(c1)C(=O)NC2=O)c1ccc(Cl)s1', 'Plasmodium berghei', 'INHIBITION', '%', -93.6),
  ('Cc1noc(CN(Cc2cccs2)C2CCS(=O)(=O)C2)n1 (stereo not given)', 'Plasmodium berghei', 'INHIBITION', '%', 49.8),
  ('Cc1ccc(-c2nc(CN(Cc3ccco3)C3CCS(=O)(=O)C3)cs2)o1 (stereo not given)', 'Plasmodium berghei', 'INHIBITION', '%', 62.8),
  ('Cc1cc(C)n(C2CN(CC(=O)N(C)Cc3ccc(C)o3)C2)n1', 'Plasmodium berghei', 'INHIBITION', '%', 71.9),
  ('Cn1cnc(S(=O)(=O)NCCCN2CCCC2)c1Cl', 'Plasmodium berghei', 'INHIBITION', '%', -9.76),
  ('Cc1ccc(CN(C)C(=O)CN2CC(n3cccn3)C2)o1', 'Plasmodium berghei', 'INHIBITION', '%', 28.4),
  ('CCOCc1ncn2c1CN(C(=O)Nc1ccccc1)CC2', 'Plasmodium berghei', 'INHIBITION', '%', -27),
  ('Cc1cc(C)n(C2CN(CC(=O)N(C)Cc3ccsc3)C2)n1', 'Plasmodium berghei', 'INHIBITION', '%', 75.7),
  ('COc1cccc(CN(C)C(=O)CN2CCN(CCO)CC2)c1', 'Plasmodium berghei', 'INHIBITION', '%', 13.7),
  ('CN(Cc1ccsc1)C(=O)CN1CCOC(Cn2cncn2)C1 (stereo not given)', 'Plasmodium berghei', 'INHIBITION', '%', 5.7),
  ('COc1ccccc1CN(C)C(=O)CN1CC(n2nc(C)cc2C)C1', 'Plasmodium berghei', 'INHIBITION', '%', 89.4),
  ('O=C(NCc1cn2cccnc2n1)C1CC(=O)N(Cc2ccccn2)C1 (stereo not given)', 'Plasmodium berghei', 'INHIBITION', '%', 37.6),
  ('COc1cccc(C(=O)NC(c2ccccn2)C2CCC(CN)CC2)c1 (stereo not given)', 'Plasmodium berghei', 'INHIBITION', '%', 41.2),
  ('Cn1nnc2c1CCN(Cc1nccs1)C2COCc1ccccc1 (stereo not given)', 'Plasmodium berghei', 'INHIBITION', '%', 15.9),
  ('O=C(NCC1CCS(=O)(=O)C1)N(Cc1ccco1)C1CC1 (stereo not given)', 'Plasmodium berghei', 'INHIBITION', '%', 38.2),
  ('O=C(NCc1ccc(F)cc1)NCC1(N2CCOCC2)CCSC1 (stereo not given)', 'Plasmodium berghei', 'INHIBITION', '%', 40.5),
  ('CSCC[C@H]1CN2CCC[C@H]2CN1Cc1cn(C)nc1C', 'Plasmodium berghei', 'INHIBITION', '%', 5.11),
  ('COc1ccccc1CC(=O)N1CCCC(n2nc(C)cc2C)C1 (stereo not given)', 'Plasmodium berghei', 'INHIBITION', '%', 27.1),
  ('CCOC1CC2(CCN(c3cnccn3)CC2)c2ccccc21 (stereo not given)', 'Plasmodium berghei', 'INHIBITION', '%', 37.9),
  ('O=C(c1cscn1)N1CC[C@@H]2[C@@H]1CCN2C1CCOC1 (stereo not given in full)', 'Plasmodium berghei', 'INHIBITION', '%', 12.6),
  ('COc1cccc(CN(C)C(=O)CN2CCN(c3nccn3C)CC2)c1', 'Plasmodium berghei', 'INHIBITION', '%', -20.6),
  ('O=C(CN1CCOCC1)N1CCC2(CCCN(C3CCOCC3)C2=O)C1 (stereo not given)', 'Plasmodium berghei', 'INHIBITION', '%', -9.02),
  ('O=C(CCCc1ccccn1)Nc1cccc(N2CCCNC2=O)c1', 'Plasmodium berghei', 'INHIBITION', '%', 11.2),
  ('Cc1ccc(-c2nc(CN(C)C3CCS(=O)(=O)C3)cs2)o1 (stereo not given)', 'Plasmodium berghei', 'INHIBITION', '%', 57.7),
  ('CN(C)Cc1ccnc(C2CCCN2Cc2ccncc2)n1 (stereo not given)', 'Plasmodium berghei', 'INHIBITION', '%', 40.4),
  ('CC(C)(C)c1nc(CN(Cc2cccs2)C2CCS(=O)(=O)C2)cs1 (stereo not given)', 'Plasmodium berghei', 'INHIBITION', '%', 59.4),
  ('CC(=O)N1CCC2(C1)CN(C(=O)C1CCOC1)C2 (stereo not given)', 'Plasmodium berghei', 'INHIBITION', '%', 9.97),
  ('CCOc1ccnc(N2CCCN(C(=O)c3cc[nH]c3C)CC2)n1', 'Plasmodium berghei', 'INHIBITION', '%', -7.31),
  ('Cc1cc(C)n(Cc2cc(C(=O)N3CCCC3c3nccs3)n[nH]2)n1 (stereo not given)', 'Plasmodium berghei', 'INHIBITION', '%', 10.7),
  ('CC(C)(C)N1CC(C(=O)NCc2cn3cccnc3n2)CC1=O (stereo not given)', 'Plasmodium berghei', 'INHIBITION', '%', 53.9);
